# PROTOCOL DETAILS: Plasma protein binding, mouse
# Type: in vitro ADME
# CONDITIONS USED: 10 μM, read-out: Plasma Protein Binding (% Bound) (converted)
OBSERVABLE: fraction unbound at 10 μM

# fraction unbound at 10 μM (compound: CCC(CC)C(=O)Nc1nc(-c2ccc(S(=O)(=O)N3CCOCC3)cc2)cs1 ) is 0.0337

====

# PROTOCOL DETAILS: in vitro
# CONDITIONS USED: human
OBSERVABLE: CC50

# CC50 (compound: CCC(CC)C(=O)Nc1nc(-c2ccc(S(=O)(=O)N3CCOCC3)cc2)cs1 ) is > 50 µM
